- ASSAY: Displacement of [125I]triiodothyronine from thyroid hormone receptor at 10 uM by scintillation counting
Would you mind labelling by inhibition? At or over 3% is class 1, under is class 0.

1. O=C(Nc1cc(Br)c(O)c(Br)c1)c1cc(Cl)c(O)c(Cl)c1 :: class 0
2. Cc1cc(C(=O)Nc2cc(Br)c(O)c(Br)c2)cc(C)c1O :: class 1
3. O=C(Nc1cc(Br)c(O)c(Br)c1)c1cc(Br)ccc1Br :: class 0
4. O=C(Nc1cc(Br)c(O)c(Br)c1)c1cc(F)c(O)c(F)c1 :: class 1
5. O=C(Nc1cc(Br)c(O)c(Br)c1)c1cc(Cl)ccc1Cl :: class 1
6. O=C(Nc1cc(Br)c(O)c(Br)c1)c1ccc(O)cc1 :: class 1
7. O=C(Nc1cc(Br)c(O)c(Br)c1)c1cc(Br)c(O)c(Br)c1 :: class 0
8. COc1ccc(OC)c(C(=O)Nc2cc(Br)c(O)c(Br)c2)c1 :: class 0
9. COc1c(Br)cc(C(=O)Nc2cc(Br)c(O)c(Br)c2)cc1Br :: class 0
